Biological target: T1, Human TNFa N-his trimers (His-tagged TNF, produced at ESBATech) (human, UniProt P01375 77-233)
T1 construct: Captured as trimers on a Ni-NTA sensor chip by the N-terminal His tags in the Biacore assay of the general methods; also called human TNFα; human TNF alpha; not shown: N-terminal His tag
T1 sequence (P01375 77-233 limits assumed): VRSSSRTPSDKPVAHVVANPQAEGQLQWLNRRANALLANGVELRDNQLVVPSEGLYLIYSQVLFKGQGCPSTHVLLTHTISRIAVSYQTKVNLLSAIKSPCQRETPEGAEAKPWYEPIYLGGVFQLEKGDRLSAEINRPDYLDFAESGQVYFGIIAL
Test: SPR (BIAcore T100), His-tagged human TNF captured on NTA chip, scFv as analyte
readoutLabel: kon (M⁻¹ s⁻¹)
Reply with just the number (in M⁻¹ s⁻¹).

{"binder": "EP43_min (scFv, scFv NH2-VL-(GGGGS)4-VH-COOH; also called 705) scFv: EIVMTQSPSTLSASVGDRVIITCQASQSISDWLAWYQQKPGKAPKLLIYGASRLASGVPSRFSGSGSGAEFTLTISSLQPDDFATYYCQQGWSDSYVDNLFGQGTKLTVLGGGGGSGGGGSGGGGSGGGGSEVQLVESGGGLVQPGGSLRLSCAASGFSLSSGAMSWVRQAPGKGLEWVSVIISSGATYYASWAKGRFTISRDNSKNTLYLQMNSLRAEDTAVYYCAKGGPDDSNSMGTFDPWGQGTLVTVSS", "units": "M⁻¹ s⁻¹", "kon": 5380}

I am curious: what kon value has been reported for EP34_max (scFv, scFv NH2-VL-(GGGGS)4-VH-COOH; also called Epi34max; 791) scFv: EIVMTQSPSTLSASLGDRVIITCQSSQSVYGNIWMAWYQQKSGKAPKLLIYQASKLASGVPSRFSGSGSGAEFSLTISSLQPDDFATYYCQGNFNTGDRYAFGQGTKLTVLGGGGGSGGGGSGGGGSGGGGSEVQLVESGGGLVQPGGSLRLSCTASGFTISRSYWICWVRQAPGKGLEWVACIYGDNDITPLYANWAKGRFPVSTDTSKNTVYLQMNSLRAEDTAVYYCARLGYADYAYDLWGQGTLVTVSS ?
586000
